experiment: in vitro; conditions: human, plasma
Description: Fraction unbound in human plasma at 5 uM after 4 hrs by equilibrium dialysis based LC-MS/MS analysis
Quantity Measured: fraction unbound at 4 h, 5 µM
Give the value as a plain number.

The reported value for Cc1cccc(Cl)c1Oc1nn(-c2ccc(C(=O)O)cc2)c2ccc(C(=O)N(C)C)cc12 in terms of fraction unbound at 4 h, 5 µM is 0.024

###

# IC50 measurements, system: Retinoic acid receptor gamma (Homo sapiens)
# Sequence (P13631 whole entry): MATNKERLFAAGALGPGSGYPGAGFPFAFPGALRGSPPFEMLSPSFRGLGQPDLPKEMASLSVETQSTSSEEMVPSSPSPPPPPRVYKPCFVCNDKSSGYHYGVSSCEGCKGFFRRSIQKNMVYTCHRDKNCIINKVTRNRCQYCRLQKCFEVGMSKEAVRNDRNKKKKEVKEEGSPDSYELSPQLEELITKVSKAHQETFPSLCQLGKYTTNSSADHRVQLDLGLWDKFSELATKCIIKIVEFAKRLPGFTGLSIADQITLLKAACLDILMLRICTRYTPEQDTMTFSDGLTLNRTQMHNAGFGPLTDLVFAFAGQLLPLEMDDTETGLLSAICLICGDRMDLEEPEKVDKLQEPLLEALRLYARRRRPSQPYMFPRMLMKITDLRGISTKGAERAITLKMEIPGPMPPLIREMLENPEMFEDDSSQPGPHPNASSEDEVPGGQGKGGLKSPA
Your answer is read as µM, so omit the unit and give the number.

# example entries with known answers
> print(dat)
                            chemical.string                              study.system  numeric.value
1  Cc1cc(C(=O)O)ccc1-n1nc(Oc2c(Cl)cccc2Cl)c2ccccc21  Retinoic acid receptor gamma (Homo sapiens)            6.2
2  CN(C)C(=O)c1ccc2c(c1)c(Sc1ccccc1)nn2-c1ccc(C(=O)O)cc1  Retinoic acid receptor gamma (Homo sapiens)            3.5

Bench note, Retinoic acid receptor gamma (Homo sapiens): entry O=C(O)c1ccc(-n2nc(Sc3c(Cl)cccc3Cl)c3ccccc32)cc1 , its IC50 = 4.4
